Cited source for all entries: the supplement of paper PMC6555819

Each item that follows carries a reported PBM binding z-score.
system: THRa homodimer (NR concentration 90 nM); assay: PBM binding z-score (relative to random genomic background probes); higher = stronger binding; sequences stand for … in GC…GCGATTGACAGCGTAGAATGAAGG
// print number alone

State its PBM binding z-score for this sequence: "AATACAGGGTCAGTAGGCCAGAGTAGGTACGAAT" 0.554

State its PBM binding z-score for this sequence: "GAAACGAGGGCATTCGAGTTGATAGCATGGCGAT" -0.43

State its PBM binding z-score for this sequence: "CGTCCAAGGTCAAAGGTCAGTGAGGAGATGACGG" 2.98

State its PBM binding z-score for this sequence: "GGAACGAGGGCATTCGAGTTGTTAGCATGGCGAT" -0.524

State its PBM binding z-score for this sequence: "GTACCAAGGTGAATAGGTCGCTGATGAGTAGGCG" 0.0254

State its PBM binding z-score for this sequence: "ATCTCTAGGTAACCAAGTTCACTGAATGCCGAAC" 1.27

State its PBM binding z-score for this sequence: "TCGAGTAGGTTACCAATGGGGCCTTCAGCTTTCT" -0.919
